Target: Serine/threonine-protein kinase Chk2 (Homo sapiens, UniProt O96017)
Sequence (O96017 whole entry): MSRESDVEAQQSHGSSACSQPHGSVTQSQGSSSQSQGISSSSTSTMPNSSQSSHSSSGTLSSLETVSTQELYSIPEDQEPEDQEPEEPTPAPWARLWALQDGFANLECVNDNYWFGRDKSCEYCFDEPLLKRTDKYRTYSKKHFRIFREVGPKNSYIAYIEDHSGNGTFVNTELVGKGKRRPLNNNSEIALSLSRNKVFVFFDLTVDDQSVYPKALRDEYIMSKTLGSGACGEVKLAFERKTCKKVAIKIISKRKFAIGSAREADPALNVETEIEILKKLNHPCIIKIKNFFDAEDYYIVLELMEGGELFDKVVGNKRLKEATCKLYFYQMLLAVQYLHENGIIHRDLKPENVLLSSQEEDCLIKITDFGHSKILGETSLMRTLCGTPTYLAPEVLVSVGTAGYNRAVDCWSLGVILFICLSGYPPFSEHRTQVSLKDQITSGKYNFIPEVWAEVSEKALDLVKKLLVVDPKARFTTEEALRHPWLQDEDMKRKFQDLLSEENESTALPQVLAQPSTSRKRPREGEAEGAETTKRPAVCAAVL
Experiment: Binding affinity to recombinant full-length N-terminal His-FLAG-GST-tagged CHEK2 (unknown origin) expressed in baculovirus infected Sf9 insect cells incubated for 1 hr by TR-FRET assay
test_readout: pKd
Please treat pKd as minus the base-10 logarithm of the molar concentration.

// lookup pKd for `CO[C@@H]1[C@H](NCCOCCOCCOCCNC(=O)CCC2=[N+]3C(=Cc4c(C)cc(C)n4[B-]3(F)F)C=C2)C[C@H]2O[C@]1(C)n1c3ccccc3c3c4c(c5c6ccccc6n2c5c31)C(=O)NC4` 6.83

* * *

Molecular target: Tyrosine-protein kinase Fgr (Homo sapiens)
Sequence (P09769 whole entry): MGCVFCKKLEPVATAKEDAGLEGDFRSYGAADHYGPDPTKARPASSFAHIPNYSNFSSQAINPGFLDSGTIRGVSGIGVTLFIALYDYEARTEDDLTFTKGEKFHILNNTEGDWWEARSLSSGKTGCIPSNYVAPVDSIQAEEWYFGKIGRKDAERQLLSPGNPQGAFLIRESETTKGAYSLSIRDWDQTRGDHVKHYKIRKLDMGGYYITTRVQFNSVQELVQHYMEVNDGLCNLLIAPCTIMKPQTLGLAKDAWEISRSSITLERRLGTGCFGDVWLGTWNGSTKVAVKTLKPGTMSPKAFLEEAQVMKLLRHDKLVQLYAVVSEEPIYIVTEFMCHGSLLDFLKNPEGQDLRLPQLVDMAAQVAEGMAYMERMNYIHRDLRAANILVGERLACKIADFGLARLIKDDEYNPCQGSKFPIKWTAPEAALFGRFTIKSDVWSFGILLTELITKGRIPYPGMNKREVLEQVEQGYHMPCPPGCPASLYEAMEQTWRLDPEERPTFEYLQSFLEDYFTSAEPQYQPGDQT
Assay: Binding affinity to recombinant full-length N-terminal His-FLAG-tagged FGR (unknown origin) expressed in baculovirus infected Sf9 insect cells incubated for 1 hr by TR-FRET assay
Would you kindly list Kd for each of these molecules?
Respond with the bare value in µM.

// lookup Kd for `CO[C@@H]1[C@H](NCCOCCOCCOCCNC(=O)CCC2=[N+]3C(=Cc4c(C)cc(C)n4[B-]3(F)F)C=C2)C[C@H]2O[C@]1(C)n1c3ccccc3c3c4c(c5c6ccccc6n2c5c31)C(=O)NC4` 0.101

// lookup Kd for `CO[C@@H]1[C@H](N(C)CCOCCOCCOCCNC(=O)CCC2=[N+]3C(=Cc4c(C)cc(C)n4[B-]3(F)F)C=C2)C[C@H]2O[C@]1(C)n1c3ccccc3c3c4c(c5c6ccccc6n2c5c31)C(=O)NC4` 0.119

* * *

Would you kindly list pKd for each of these molecules?
Molecular target: cAMP-dependent protein kinase catalytic subunit alpha (Homo sapiens, UniProt P17612)
Experiment: Binding affinity to recombinant human full length N-terminal GST-tagged PRKACA expressed in baculovirus expression system using kemptide as substrate incubated for 1 hr by TR-FRET assay
Please treat pKd as minus the base-10 logarithm of the molar concentration.

// lookup pKd for `CO[C@@H]1[C@H](NCCOCCOCCOCCNC(=O)CCC2=[N+]3C(=Cc4c(C)cc(C)n4[B-]3(F)F)C=C2)C[C@H]2O[C@]1(C)n1c3ccccc3c3c4c(c5c6ccccc6n2c5c31)C(=O)NC4` 6.94

// lookup pKd for `CO[C@@H]1[C@H](N(C)CCOCCOCCOCCNC(=O)CCC2=[N+]3C(=Cc4c(C)cc(C)n4[B-]3(F)F)C=C2)C[C@H]2O[C@]1(C)n1c3ccccc3c3c4c(c5c6ccccc6n2c5c31)C(=O)NC4` 7.38

* * *

Target: UniProt P08581
Assay: Binding affinity to recombinant full-length N-terminal His-FLAG-GST-tagged MET (unknown origin) (956 to 1390 residues) expressed in baculovirus infected Sf9 insect cells incubated for 1 hr by TR-FRET assay
Would you kindly list Kd for each of these molecules?
Lab note: write values as number then unit, every time.

// lookup Kd for `CO[C@@H]1[C@H](NCCOCCOCCOCCNC(=O)CCC2=[N+]3C(=Cc4c(C)cc(C)n4[B-]3(F)F)C=C2)C[C@H]2O[C@]1(C)n1c3ccccc3c3c4c(c5c6ccccc6n2c5c31)C(=O)NC4` 930 nM

// lookup Kd for `CO[C@@H]1[C@H](N(C)CCOCCOCCOCCNC(=O)CCC2=[N+]3C(=Cc4c(C)cc(C)n4[B-]3(F)F)C=C2)C[C@H]2O[C@]1(C)n1c3ccccc3c3c4c(c5c6ccccc6n2c5c31)C(=O)NC4` 812 nM

* * *

Would you kindly list pKd for each of these molecules?
Target: Protein kinase C eta type (Homo sapiens, UniProt P24723)
Sequence (P24723 whole entry): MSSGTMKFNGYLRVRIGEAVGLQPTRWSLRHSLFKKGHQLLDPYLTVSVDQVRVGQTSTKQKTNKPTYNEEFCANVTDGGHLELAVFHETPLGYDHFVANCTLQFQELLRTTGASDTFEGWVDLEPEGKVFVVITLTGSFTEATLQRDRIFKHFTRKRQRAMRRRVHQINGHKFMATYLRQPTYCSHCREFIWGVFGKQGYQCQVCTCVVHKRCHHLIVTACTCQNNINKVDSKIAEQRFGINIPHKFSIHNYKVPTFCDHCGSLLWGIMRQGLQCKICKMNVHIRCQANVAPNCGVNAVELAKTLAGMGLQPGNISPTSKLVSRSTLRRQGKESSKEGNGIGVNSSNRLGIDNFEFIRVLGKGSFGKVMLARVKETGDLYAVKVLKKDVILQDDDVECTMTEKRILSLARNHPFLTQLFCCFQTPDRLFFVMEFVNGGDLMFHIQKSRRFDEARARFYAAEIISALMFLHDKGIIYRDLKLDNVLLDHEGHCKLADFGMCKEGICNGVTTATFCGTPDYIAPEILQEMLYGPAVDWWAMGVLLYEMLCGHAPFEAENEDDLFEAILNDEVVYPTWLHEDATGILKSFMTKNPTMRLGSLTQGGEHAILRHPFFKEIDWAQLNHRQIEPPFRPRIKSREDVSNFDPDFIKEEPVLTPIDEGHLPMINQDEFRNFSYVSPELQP
Assay: Binding affinity to recombinant full-length N-terminal His-FLAG-GST-tagged PRKCH (unknown origin) expressed in baculovirus infected Sf9 insect cells incubated for 1 hr by TR-FRET assay
Please treat pKd as minus the base-10 logarithm of the molar concentration.

// lookup pKd for `CO[C@@H]1[C@H](N(C)CCOCCOCCOCCNC(=O)CCC2=[N+]3C(=Cc4c(C)cc(C)n4[B-]3(F)F)C=C2)C[C@H]2O[C@]1(C)n1c3ccccc3c3c4c(c5c6ccccc6n2c5c31)C(=O)NC4` 7.43

// lookup pKd for `CO[C@@H]1[C@H](NCCOCCOCCOCCNC(=O)CCC2=[N+]3C(=Cc4c(C)cc(C)n4[B-]3(F)F)C=C2)C[C@H]2O[C@]1(C)n1c3ccccc3c3c4c(c5c6ccccc6n2c5c31)C(=O)NC4` 7.21

* * *

Target: Serine/threonine-protein kinase 17A (Homo sapiens)
Sequence (Q9UEE5 whole entry): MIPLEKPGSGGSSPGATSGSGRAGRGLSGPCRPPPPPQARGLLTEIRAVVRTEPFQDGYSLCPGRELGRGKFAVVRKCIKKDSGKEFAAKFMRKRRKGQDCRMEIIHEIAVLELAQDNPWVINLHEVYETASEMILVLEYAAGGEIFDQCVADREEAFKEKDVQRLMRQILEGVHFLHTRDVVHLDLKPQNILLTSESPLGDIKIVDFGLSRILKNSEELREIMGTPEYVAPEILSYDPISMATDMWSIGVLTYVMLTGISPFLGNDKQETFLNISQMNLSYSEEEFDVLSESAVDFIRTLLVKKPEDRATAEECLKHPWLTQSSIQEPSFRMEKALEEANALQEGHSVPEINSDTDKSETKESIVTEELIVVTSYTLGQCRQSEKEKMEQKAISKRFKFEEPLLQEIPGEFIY
Experiment: Binding affinity to recombinant full length N-terminal His-FLAG-GST-tagged STK17A (unknown origin) expressed in baculovirus infected Sf9 insect cells incubated for 1 hr by TR-FRET assay
test_readout: pKd
Please treat pKd as minus the base-10 logarithm of the molar concentration.

// lookup pKd for `CO[C@@H]1[C@H](N(C)CCOCCOCCOCCNC(=O)CCC2=[N+]3C(=Cc4c(C)cc(C)n4[B-]3(F)F)C=C2)C[C@H]2O[C@]1(C)n1c3ccccc3c3c4c(c5c6ccccc6n2c5c31)C(=O)NC4` 6.44

// lookup pKd for `CO[C@@H]1[C@H](NCCOCCOCCOCCNC(=O)CCC2=[N+]3C(=Cc4c(C)cc(C)n4[B-]3(F)F)C=C2)C[C@H]2O[C@]1(C)n1c3ccccc3c3c4c(c5c6ccccc6n2c5c31)C(=O)NC4` 6.59

* * *

Target: Serine/threonine-protein kinase 26 (Homo sapiens)
Sequence (Q9P289 whole entry): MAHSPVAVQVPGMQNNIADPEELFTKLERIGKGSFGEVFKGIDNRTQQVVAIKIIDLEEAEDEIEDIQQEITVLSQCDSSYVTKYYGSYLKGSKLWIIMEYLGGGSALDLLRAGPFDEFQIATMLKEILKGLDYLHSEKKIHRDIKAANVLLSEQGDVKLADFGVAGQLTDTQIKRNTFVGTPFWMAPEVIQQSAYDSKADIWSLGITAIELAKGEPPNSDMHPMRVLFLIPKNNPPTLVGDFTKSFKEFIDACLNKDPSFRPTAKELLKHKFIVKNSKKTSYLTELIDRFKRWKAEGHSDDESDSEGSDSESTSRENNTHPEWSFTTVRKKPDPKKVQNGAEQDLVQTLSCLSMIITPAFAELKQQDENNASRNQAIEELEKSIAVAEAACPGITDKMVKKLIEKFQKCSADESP
Assay: Binding affinity to recombinant full-length N-terminal His-FLAG-tagged MST4 (unknown origin) expressed in baculovirus infected Sf9 insect cells incubated for 1 hr by TR-FRET assay
Would you kindly list pKd for each of these molecules?
Please treat pKd as minus the base-10 logarithm of the molar concentration.

// lookup pKd for `CO[C@@H]1[C@H](N(C)CCOCCOCCOCCNC(=O)CCC2=[N+]3C(=Cc4c(C)cc(C)n4[B-]3(F)F)C=C2)C[C@H]2O[C@]1(C)n1c3ccccc3c3c4c(c5c6ccccc6n2c5c31)C(=O)NC4` 6.01

// lookup pKd for `CO[C@@H]1[C@H](NCCOCCOCCOCCNC(=O)CCC2=[N+]3C(=Cc4c(C)cc(C)n4[B-]3(F)F)C=C2)C[C@H]2O[C@]1(C)n1c3ccccc3c3c4c(c5c6ccccc6n2c5c31)C(=O)NC4` 6.16

* * *

Molecular target: Mitogen-activated protein kinase 8 (Homo sapiens, UniProt P45983)
Sequence (P45983 whole entry, the tested form may be a part): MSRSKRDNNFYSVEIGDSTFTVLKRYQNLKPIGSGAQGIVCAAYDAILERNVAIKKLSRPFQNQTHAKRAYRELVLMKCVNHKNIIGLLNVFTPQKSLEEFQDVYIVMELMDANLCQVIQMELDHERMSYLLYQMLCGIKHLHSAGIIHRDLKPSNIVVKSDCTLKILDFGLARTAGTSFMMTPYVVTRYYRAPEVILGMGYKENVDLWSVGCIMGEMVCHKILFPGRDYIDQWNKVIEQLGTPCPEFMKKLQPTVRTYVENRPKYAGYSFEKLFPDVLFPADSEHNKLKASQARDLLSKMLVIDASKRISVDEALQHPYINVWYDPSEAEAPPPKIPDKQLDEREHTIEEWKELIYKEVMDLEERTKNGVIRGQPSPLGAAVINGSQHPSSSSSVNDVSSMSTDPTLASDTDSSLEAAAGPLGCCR
Assay: Binding affinity to recombinant N-terminal His-FLAG-GST-tagged MAPK8 (unknown origin) (2 to 364 residues) expressed in baculovirus infected Sf9 insect cells incubated for 1 hr by TR-FRET assay
Would you kindly list Kd for each of these compounds?
Respond with the bare value in nM.

// lookup Kd for `CO[C@@H]1[C@H](NCCOCCOCCOCCNC(=O)CCC2=[N+]3C(=Cc4c(C)cc(C)n4[B-]3(F)F)C=C2)C[C@H]2O[C@]1(C)n1c3ccccc3c3c4c(c5c6ccccc6n2c5c31)C(=O)NC4` 286

// lookup Kd for `CO[C@@H]1[C@H](N(C)CCOCCOCCOCCNC(=O)CCC2=[N+]3C(=Cc4c(C)cc(C)n4[B-]3(F)F)C=C2)C[C@H]2O[C@]1(C)n1c3ccccc3c3c4c(c5c6ccccc6n2c5c31)C(=O)NC4` 536

* * *

Molecular target: Mitogen-activated protein kinase 9 (Homo sapiens, UniProt P45984)
Sequence (P45984 whole entry): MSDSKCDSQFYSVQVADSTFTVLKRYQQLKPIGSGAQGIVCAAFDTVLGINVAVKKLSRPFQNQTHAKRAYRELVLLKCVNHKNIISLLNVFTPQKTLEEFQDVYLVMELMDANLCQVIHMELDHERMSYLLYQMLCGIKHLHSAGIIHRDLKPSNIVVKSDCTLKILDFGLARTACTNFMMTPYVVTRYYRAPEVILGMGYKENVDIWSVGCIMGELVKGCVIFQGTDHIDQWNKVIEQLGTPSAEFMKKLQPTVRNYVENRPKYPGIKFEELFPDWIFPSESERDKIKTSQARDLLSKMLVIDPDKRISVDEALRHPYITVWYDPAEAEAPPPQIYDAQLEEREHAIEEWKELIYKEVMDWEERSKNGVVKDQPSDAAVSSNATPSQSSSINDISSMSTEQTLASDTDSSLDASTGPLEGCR
Assay: Binding affinity to recombinant full-length N-terminal His-FLAG-tagged MAPK9 (unknown origin) expressed in baculovirus infected Sf9 insect cells incubated for 1 hr by TR-FRET assay
test_readout: Kd (nM)
Respond with the bare value in nM.

// lookup Kd for `CO[C@@H]1[C@H](N(C)CCOCCOCCOCCNC(=O)CCC2=[N+]3C(=Cc4c(C)cc(C)n4[B-]3(F)F)C=C2)C[C@H]2O[C@]1(C)n1c3ccccc3c3c4c(c5c6ccccc6n2c5c31)C(=O)NC4` 745

* * *

Molecular target: UniProt:P49840
Sequence (P49840 whole entry): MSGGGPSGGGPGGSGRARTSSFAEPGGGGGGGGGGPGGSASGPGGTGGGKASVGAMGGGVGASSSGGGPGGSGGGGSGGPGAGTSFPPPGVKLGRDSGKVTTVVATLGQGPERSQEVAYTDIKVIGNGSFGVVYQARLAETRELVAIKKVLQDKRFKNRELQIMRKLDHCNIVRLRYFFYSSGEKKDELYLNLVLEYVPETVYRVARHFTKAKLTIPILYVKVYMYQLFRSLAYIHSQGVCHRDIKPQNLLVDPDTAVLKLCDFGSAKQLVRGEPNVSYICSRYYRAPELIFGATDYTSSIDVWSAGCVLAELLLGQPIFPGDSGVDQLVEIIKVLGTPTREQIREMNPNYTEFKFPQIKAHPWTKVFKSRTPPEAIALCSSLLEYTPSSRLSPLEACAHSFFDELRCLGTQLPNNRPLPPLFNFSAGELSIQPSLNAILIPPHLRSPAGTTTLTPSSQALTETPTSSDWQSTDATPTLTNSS
Experiment: Binding affinity to recombinant full-length N-terminal His-GST-tagged GSK3A (unknown origin) expressed in baculovirus infected Sf9 insect cells incubated for 1 hr by TR-FRET assay
Would you kindly list Kd for each of these compounds?
Lab note: write values as number then unit, every time.

// lookup Kd for `CO[C@@H]1[C@H](N(C)CCOCCOCCOCCNC(=O)CCC2=[N+]3C(=Cc4c(C)cc(C)n4[B-]3(F)F)C=C2)C[C@H]2O[C@]1(C)n1c3ccccc3c3c4c(c5c6ccccc6n2c5c31)C(=O)NC4` 0.213 µM

// lookup Kd for `CO[C@@H]1[C@H](NCCOCCOCCOCCNC(=O)CCC2=[N+]3C(=Cc4c(C)cc(C)n4[B-]3(F)F)C=C2)C[C@H]2O[C@]1(C)n1c3ccccc3c3c4c(c5c6ccccc6n2c5c31)C(=O)NC4` 0.329 µM

* * *

Biological target: Tyrosine-protein kinase BTK (Homo sapiens)
Sequence (Q06187 whole entry): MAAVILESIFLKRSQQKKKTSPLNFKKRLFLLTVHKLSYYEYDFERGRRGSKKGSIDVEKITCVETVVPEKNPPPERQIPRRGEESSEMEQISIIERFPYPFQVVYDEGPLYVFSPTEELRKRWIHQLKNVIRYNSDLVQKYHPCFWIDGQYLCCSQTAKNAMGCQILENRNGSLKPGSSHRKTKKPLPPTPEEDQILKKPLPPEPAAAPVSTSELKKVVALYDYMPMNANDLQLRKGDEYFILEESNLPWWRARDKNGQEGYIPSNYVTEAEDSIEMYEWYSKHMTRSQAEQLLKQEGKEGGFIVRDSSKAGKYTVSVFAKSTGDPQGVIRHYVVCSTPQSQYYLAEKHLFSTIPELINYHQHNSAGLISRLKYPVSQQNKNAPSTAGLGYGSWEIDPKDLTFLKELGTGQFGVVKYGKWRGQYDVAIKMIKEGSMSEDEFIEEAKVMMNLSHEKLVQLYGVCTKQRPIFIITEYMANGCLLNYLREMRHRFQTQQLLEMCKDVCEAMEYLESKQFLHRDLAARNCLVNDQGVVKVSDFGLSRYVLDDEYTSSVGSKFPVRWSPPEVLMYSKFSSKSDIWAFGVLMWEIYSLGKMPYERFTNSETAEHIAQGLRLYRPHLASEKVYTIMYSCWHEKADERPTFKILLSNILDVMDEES
Experiment: Binding affinity to recombinant human full-length N-terminal GST-tagged BTK expressed in baculovirus expression system using srctide as substrate incubated for 1 hr by TR-FRET assay
test_readout: Kd
Lab note: write values as number then unit, every time.

Query for Tyrosine-protein kinase BTK (Homo sapiens): what Kd does the record show for `CO[C@@H]1[C@H](N(C)CCOCCOCCOCCNC(=O)CCC2=[N+]3C(=Cc4c(C)cc(C)n4[B-]3(F)F)C=C2)C[C@H]2O[C@]1(C)n1c3ccccc3c3c4c(c5c6ccccc6n2c5c31)C(=O)NC4` ? 437 nM

Query for Tyrosine-protein kinase BTK (Homo sapiens): what Kd does the record show for `CO[C@@H]1[C@H](NCCOCCOCCOCCNC(=O)CCC2=[N+]3C(=Cc4c(C)cc(C)n4[B-]3(F)F)C=C2)C[C@H]2O[C@]1(C)n1c3ccccc3c3c4c(c5c6ccccc6n2c5c31)C(=O)NC4` ? 374 nM
